I'd appreciate it if you could supply pIC50 values for the items below.
- ASSAYED_TARGET: human orexin-2 receptor (Homo sapiens)
- Construct: expressed in transfected cells; host or cells: CHO (Chinese hamster ovary) cells, grown under G418 selection
- Sequence (O43614 whole entry): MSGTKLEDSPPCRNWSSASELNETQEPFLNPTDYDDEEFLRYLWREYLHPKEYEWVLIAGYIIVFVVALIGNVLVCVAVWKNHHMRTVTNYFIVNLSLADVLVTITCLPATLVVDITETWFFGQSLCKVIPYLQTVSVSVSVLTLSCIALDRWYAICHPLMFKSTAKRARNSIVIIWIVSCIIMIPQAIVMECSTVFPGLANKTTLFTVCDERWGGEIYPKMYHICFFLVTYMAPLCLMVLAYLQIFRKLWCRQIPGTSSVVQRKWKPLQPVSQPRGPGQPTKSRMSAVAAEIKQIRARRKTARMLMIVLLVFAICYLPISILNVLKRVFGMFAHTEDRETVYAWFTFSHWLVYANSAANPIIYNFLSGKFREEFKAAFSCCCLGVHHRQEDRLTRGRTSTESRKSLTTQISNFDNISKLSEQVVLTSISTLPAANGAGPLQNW
- PROTOCOL_NOTES: FLIPR intracellular calcium assay, orexin receptor antagonistic activity (OX2)
- Type: cell-based
- REPORTED_CONDITIONS: CHO cells expressing human orexin-2 receptor; 3 nM orexin-A; measured with FLIPR 2
API: returns pIC50 as number; meaning -log10 of concentration in mol/L.

Report pIC50 for Cc1nc2sccn2c1C(=O)NCC(Cc1ccccc1)NC(=O)c1ccccc1-c1ccccc1 (racemic) [Example 73] please.
7.72

Which pIC50 is listed for Cc1nc2sccn2c1C(=O)NCC(C(C)C)N(Cc1ccccc1)C(=O)c1ccccc1-c1ccccc1 (racemic) [Example 99] ?
6.14

Consider the molecule shown here: Cc1nc2sccn2c1C(=O)NCC(CC(C)C)NC(=O)c1ccccc1-c1ccccc1 (racemic) [Example 88] What is its recorded pIC50?
7.34

May I ask what pIC50 has been recorded for Cc1nc(C(=O)N(CCNC(=O)c2cccc3c2OCCO3)Cc2ccc(C(F)(F)F)cc2)c(-c2ccccc2)s1 [Example 25] ?
7.92

So what's the measured pIC50 for this one? Cc1nc(C(=O)NC(CNC(=O)c2c(C)nc3sccn23)C2CC2)c(-c2ccccc2)s1 (racemic) [Example 49]
7.48

Look up pIC50: Cc1nc(C(=O)N(C)C(CNC(=O)c2c(C)nc3sccn23)C2CC2)c(-c2ccccc2)s1 (racemic) [Example 47]
7.30

Given the molecule Cc1nc(C(=O)N(Cc2ccccc2)C(CNC(=O)c2c(C)nc3sccn23)Cc2ccccc2)c(-c2ccccc2)s1 (racemic) [Example 71] , what is its reported pIC50?
7.30

What value of pIC50 has been reported for the following molecule? Cc1nc(C(=O)NC(CNC(=O)c2cccc3occc23)CC(C)C)c(-c2ccccc2)s1 (racemic) [Example 83]
6.52

// returns reported pIC50 for input Cc1nc(C(=O)N(CCNC(=O)c2cccc3c2OCCO3)CC(C)C)c(-c2ccccc2)s1 [Example 31]
7.07

Entry Cc1nc2sccn2c1C(=O)NCC(C)N(Cc1ccccc1)C(=O)c1ccccc1-c1ccccc1 (racemic) [Example 97] : reported pIC50 = ?
8.24

Please give the measured pIC50 for this molecule: Cc1nc(C(=O)N(CCNC(=O)c2c(C)nc3sccn23)Cc2ccc(F)cc2)c(-c2ccccc2)s1 [Example 18]
7.96

* * *

- ASSAYED_TARGET: human orexin-1 receptor (Homo sapiens, UniProt O43613)
- Construct: expressed in transfected cells; host or cells: CHO (Chinese hamster ovary) cells, grown under G418 selection
- Sequence (O43613 1-425): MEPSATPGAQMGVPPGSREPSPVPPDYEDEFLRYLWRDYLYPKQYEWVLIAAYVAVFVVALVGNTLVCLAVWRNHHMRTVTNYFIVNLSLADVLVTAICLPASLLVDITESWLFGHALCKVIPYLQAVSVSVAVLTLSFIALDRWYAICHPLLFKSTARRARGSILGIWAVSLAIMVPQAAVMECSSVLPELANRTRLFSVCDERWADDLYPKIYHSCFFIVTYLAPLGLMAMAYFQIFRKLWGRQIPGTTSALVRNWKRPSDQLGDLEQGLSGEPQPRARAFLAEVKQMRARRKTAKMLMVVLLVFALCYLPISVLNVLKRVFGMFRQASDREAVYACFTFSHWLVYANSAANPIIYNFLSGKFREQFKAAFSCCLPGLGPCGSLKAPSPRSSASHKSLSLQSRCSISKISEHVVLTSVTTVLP
- PROTOCOL_NOTES: FLIPR intracellular calcium assay, orexin receptor antagonistic activity (OX1)
- Format: cell-based
- REPORTED_CONDITIONS: CHO cells expressing human orexin-1 receptor; 3 nM orexin-A; measured with FLIPR 2
Hi there, I'd appreciate the recorded pIC50 for every entry that follows.
Would you please state pIC50, meaning minus log10 of the concentration in mol/L, as a bare number?

Could you tell me which pIC50 is on file for Cc1nc(C(=O)NC(CNC(=O)c2cccc3occc23)CC(C)C)c(-c2ccccc2)s1 (racemic) [Example 83] ?
6.36

Look up pIC50: Cc1nc2sccn2c1C(=O)NCC(Cc1ccccc1)NC(=O)c1ccccc1-c1ccccc1 (racemic) [Example 73]
6.92

I am curious: what pIC50 value has been reported for Cc1nc(C(=O)N(Cc2ccccc2)C(CNC(=O)c2c(C)nc3sccn23)Cc2ccccc2)c(-c2ccccc2)s1 (racemic) [Example 71] ?
7.57

Any idea what its pIC50 is? The compound is Cc1nc(C(=O)N(CCNC(=O)c2cccc3c2OCCO3)CC(C)C)c(-c2ccccc2)s1 [Example 31]
6.30

Item Cc1nc(C(=O)NC(CNC(=O)c2c(C)nc3sccn23)C2CC2)c(-c2ccccc2)s1 (racemic) [Example 49] has what recorded pIC50?
7.43

Suppose we examine the compound Cc1nc2sccn2c1C(=O)NCC(CC(C)C)NC(=O)c1ccccc1-c1ccccc1 (racemic) [Example 88] ; what pIC50 value has been reported?
7.08

Look up pIC50 for this compound: Cc1nc(C(=O)N(CCNC(=O)c2cccc3c2OCCO3)Cc2ccc(C(F)(F)F)cc2)c(-c2ccccc2)s1 [Example 25]
7.12

Please look up its pIC50: Cc1nc2sccn2c1C(=O)NCC(C(C)C)N(Cc1ccccc1)C(=O)c1ccccc1-c1ccccc1 (racemic) [Example 99]
6.94

Quick one: pIC50 for Cc1nc(C(=O)N(C)C(CNC(=O)c2c(C)nc3sccn23)C2CC2)c(-c2ccccc2)s1 (racemic) [Example 47] ?
6.95

// query pIC50 value for entry Cc1nc(C(=O)N(CCNC(=O)c2c(C)nc3sccn23)Cc2ccc(F)cc2)c(-c2ccccc2)s1 [Example 18]
8.11

What does the data say about its pIC50? Entry: Cc1nc2sccn2c1C(=O)NCC(C)N(Cc1ccccc1)C(=O)c1ccccc1-c1ccccc1 (racemic) [Example 97]
8.24
